Tested On: rat mGluR1 (metabotropic glutamate receptor 1) (Rattus norvegicus)
Construct: expressed in transfected cells; host or cells: CHO (Chinese hamster ovary) cells
Sequence (P23385 19-1199): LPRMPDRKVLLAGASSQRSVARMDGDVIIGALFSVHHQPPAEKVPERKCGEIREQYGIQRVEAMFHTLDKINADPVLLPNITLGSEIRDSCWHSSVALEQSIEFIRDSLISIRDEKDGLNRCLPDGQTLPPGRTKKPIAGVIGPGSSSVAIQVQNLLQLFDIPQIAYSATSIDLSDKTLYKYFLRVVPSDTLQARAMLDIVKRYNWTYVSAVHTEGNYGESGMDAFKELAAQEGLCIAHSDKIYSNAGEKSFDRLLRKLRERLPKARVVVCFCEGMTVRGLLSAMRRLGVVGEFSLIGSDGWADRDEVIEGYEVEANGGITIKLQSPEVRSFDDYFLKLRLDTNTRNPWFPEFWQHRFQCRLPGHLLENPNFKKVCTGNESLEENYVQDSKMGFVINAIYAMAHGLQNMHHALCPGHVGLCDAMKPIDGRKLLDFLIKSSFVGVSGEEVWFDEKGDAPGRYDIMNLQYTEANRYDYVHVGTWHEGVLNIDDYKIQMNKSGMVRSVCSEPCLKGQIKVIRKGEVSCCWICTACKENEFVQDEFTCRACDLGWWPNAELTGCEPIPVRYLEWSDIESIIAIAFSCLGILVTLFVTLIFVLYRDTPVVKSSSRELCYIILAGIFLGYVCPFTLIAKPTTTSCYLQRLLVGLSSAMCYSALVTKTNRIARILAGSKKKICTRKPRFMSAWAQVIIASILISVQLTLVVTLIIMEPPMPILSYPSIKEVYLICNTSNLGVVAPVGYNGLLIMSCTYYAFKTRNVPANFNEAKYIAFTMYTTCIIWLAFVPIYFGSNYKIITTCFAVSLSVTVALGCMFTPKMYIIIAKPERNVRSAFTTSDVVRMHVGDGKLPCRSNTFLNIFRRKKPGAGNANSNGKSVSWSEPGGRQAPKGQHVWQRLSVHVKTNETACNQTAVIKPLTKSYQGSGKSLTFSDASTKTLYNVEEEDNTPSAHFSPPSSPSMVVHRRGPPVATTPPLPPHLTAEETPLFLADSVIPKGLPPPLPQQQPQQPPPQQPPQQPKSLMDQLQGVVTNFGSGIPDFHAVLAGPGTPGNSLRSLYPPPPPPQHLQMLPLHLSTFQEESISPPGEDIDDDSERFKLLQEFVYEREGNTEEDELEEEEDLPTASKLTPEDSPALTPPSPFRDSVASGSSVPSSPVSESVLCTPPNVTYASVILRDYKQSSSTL
Experiment Summary: mGluR1 antagonistic effect as assessed with reference to intracellular Ca2+ response in mGluR1 expressing CHO cells (Fura-2 fluorometry)
Type: cell-based
Protocol Conditions: Intracellular Ca2+ release induced by 10 μM glutamic acid, Table 3, read-out: IC50
Outcome Measure: IC50 (µM)

Below, each entry is followed by its recorded IC50 result.
| Compound | Tested On | Observed Value |
| --- | --- | --- |
| CC(C)COC(=O)C12CC1C(=NO)c1ccccc1O2 (stereo not shown) | rat mGluR1 (metabotropic glutamate receptor 1) (Rattus norvegicus) | 20 |
| CN(C(=O)C12CC1C(=NO)c1ccccc1O2)c1ccccc1 (stereo not shown) | rat mGluR1 (metabotropic glutamate receptor 1) (Rattus norvegicus) | 10 |
| O=C(Nc1ccccc1)C12CC1C(=NO)c1ccccc1O2 (stereo not shown) | rat mGluR1 (metabotropic glutamate receptor 1) (Rattus norvegicus) | 3 |
| COc1ccc(N(C)C(=O)C23CC2C(=NO)c2ccccc2O3)cc1 (stereo not shown) | rat mGluR1 (metabotropic glutamate receptor 1) (Rattus norvegicus) | 100 |
| N[C@H](C(=O)O)c1ccc(C(=O)O)cc1 [(S)-4CPG, reference compound] | rat mGluR1 (metabotropic glutamate receptor 1) (Rattus norvegicus) | 200 |
| CCOC(=O)C12CC1C(=NO)c1ccccc1O2 (stereo not shown) | rat mGluR1 (metabotropic glutamate receptor 1) (Rattus norvegicus) | 23 |

[I] O=C(N1CCN(c2ccc(F)cc2)CC1)C12CC1C(=NO)c1ccccc1O2 (stereo not shown)
[II] CN(Cc1ccccc1)C(=O)C12CC1C(=NO)c1ccccc1O2 (stereo not shown)
Asked: Select one: I or II . Criterion: greater recorded IC50. Answer format: the label of the selected item.
Given back: I
(I: 100 µM, II: 20 µM)

[A] CC(N)(C(=O)O)c1ccc(C(=O)O)cc1 (stereo not shown) [MCPG, reference compound]
[B] CN(C(=O)C12CC1C(=NO)c1ccccc1O2)c1ccc(Cl)cc1 (stereo not shown)
Asked: Just tell me: smaller IC50 value, A or B ? Answer format: the label of the selected item.
Given back: B
(B: 100 µM, A: 700 µM)

Source: patent US5843988A
